# Assay Context: in water, 298 K

| Compound String | solubility (mole fraction) |
| --- | --- |
| C1CN2CN3CCN(CN1C3)C2 | 0.113 |

###

# Assay Context: in water, 296.05 K

| Compound String | solubility (mole fraction) |
| --- | --- |
| Nc1ccc(Cl)nn1 | 7.6e-05 |

###

# Assay Context: in propylene glycol, 313.2 K

| Compound | solubility (mole fraction) |
| --- | --- |
| CC(=O)N1CCN(c2ccc(OC[C@@H]3CO[C@@](Cn4ccnc4)(c4ccc(Cl)cc4Cl)O3)cc2)CC1 (racemic) | 0.00507 |

###

# Assay Context: in water, 288 K

| Compound String | solubility (mole fraction) |
| --- | --- |
| C1CN2CN3CCN(CN1C3)C2 | 0.105 |

Source of measurements: BigSolDB 2.1
